Assay: Cytotoxicity against CA9-deficient chinese hamster PS120 cells assessed as cell viability at 300 uM and pH 7.5 after 24 hrs by giemsa staining
Format: cell-based, Cricetulus griseus
Settings: ps120, pH 7.5, 24 h
readoutLabel: Activity

CC(=O)Nc1nnc(S(N)(=O)=O)s1 [ACETAZOLAMIDE]
Toxic
NS(=O)(=O)c1ccc(-n2nnc(CS[C@@H]3O[C@H](CO)[C@@H](O)[C@H](O)[C@H]3O)c2I)cc1
Non-toxic
NS(=O)(=O)c1ccc(-n2cc(CS[C@@H]3O[C@H](CO)[C@@H](O)[C@H](O)[C@H]3O)nn2)cc1
Non-toxic
NS(=O)(=O)c1ccc(-n2cc(CS(=O)(=O)[C@@H]3O[C@H](CO)[C@@H](O)[C@H](O)[C@H]3O)nn2)cc1
Non-toxic
CC(=O)OC[C@H]1O[C@@H](SCc2nnn(-c3ccc(S(N)(=O)=O)cc3)c2I)[C@H](OC(C)=O)[C@@H](OC(C)=O)[C@@H]1OC(C)=O
Toxic
CC(=O)OC[C@H]1O[C@@H](S(=O)(=O)Cc2cn(-c3ccc(S(N)(=O)=O)cc3)nn2)[C@H](OC(C)=O)[C@@H](OC(C)=O)[C@@H]1OC(C)=O
Non-toxic
CC(=O)OC[C@H]1O[C@@H](S(=O)(=O)Cc2nnn(-c3ccc(S(N)(=O)=O)cc3)c2I)[C@H](OC(C)=O)[C@@H](OC(C)=O)[C@@H]1OC(C)=O
Toxic

// query Tell me the measured Activity of NS(=O)(=O)c1ccc(-n2nnc(CS(=O)(=O)[C@@H]3O[C@H](CO)[C@@H](O)[C@H](O)[C@H]3O)c2I)cc1 , please.
// result Toxic

----------
Molecular target: Carbonic anhydrase 9 (Homo sapiens, UniProt Q16790)
# YES = Ki below 90 nM (exclusive); NO = Ki at/above 90 nM

NS(=O)(=O)c1ccc(-n2nnc(CS[C@@H]3O[C@H](CO)[C@H](O)[C@H](O)[C@H]3O)c2I)cc1
YES
NS(=O)(=O)c1ccc(-n2cc(CS(=O)(=O)[C@@H]3O[C@H](CO)[C@@H](O[C@H]4O[C@H](CO)[C@@H](O)[C@H](O)[C@H]4O)[C@H](O)[C@H]3O)nn2)cc1
YES
CC(=O)OC[C@H]1O[C@@H](SCc2nnn(-c3ccc(S(N)(=O)=O)cc3)c2I)[C@H](OC(C)=O)[C@@H](OC(C)=O)[C@@H]1OC(C)=O
YES
CC(=O)OC[C@H]1O[C@@H](S(=O)(=O)Cc2nnn(-c3ccc(S(N)(=O)=O)cc3)c2I)[C@H](OC(C)=O)[C@@H](OC(C)=O)[C@@H]1OC(C)=O
YES
CC(=O)OC[C@H]1O[C@@H](S(=O)(=O)Cc2nnn(-c3ccc(S(N)(=O)=O)cc3)c2I)[C@H](OC(C)=O)[C@@H](OC(C)=O)[C@H]1OC(C)=O
NO

Continue with the molecule presented below.
// query is_below(Ki, 90 nM) for CC(=O)OC[C@H]1O[C@@H](SCc2nnn(-c3ccc(S(N)(=O)=O)cc3)c2I)[C@H](OC(C)=O)[C@@H](OC(C)=O)[C@H]1OC(C)=O ?
// result NO

----------
Experiment: Cytotoxicity against CA9-deficient chinese hamster PS120 cells assessed as cell viability at 100 uM and pH 7.5 after 24 hrs by giemsa staining
Assay type: cell-based, Cricetulus griseus
Details: ps120, pH 7.5, 24 h
readoutLabel: Activity

Worked examples follow.
CC(=O)OC[C@H]1O[C@@H](S(=O)(=O)Cc2cn(-c3ccc(S(N)(=O)=O)cc3)nn2)[C@H](OC(C)=O)[C@@H](OC(C)=O)[C@@H]1OC(C)=O
Non-toxic
CC(=O)OC[C@H]1O[C@@H](SCc2cn(-c3ccc(S(N)(=O)=O)cc3)nn2)[C@H](OC(C)=O)[C@@H](OC(C)=O)[C@@H]1OC(C)=O
Non-toxic
NS(=O)(=O)c1ccc(-n2nnc(CS(=O)(=O)[C@@H]3O[C@H](CO)[C@@H](O)[C@H](O)[C@H]3O)c2I)cc1
Non-toxic
NS(=O)(=O)c1ccc(-n2nnc(CS[C@@H]3O[C@H](CO)[C@@H](O)[C@H](O)[C@H]3O)c2I)cc1
Non-toxic
CC(=O)Nc1nnc(S(N)(=O)=O)s1 [ACETAZOLAMIDE]
Non-toxic

Field: Activity. Fill in for each record below.
1. CC(=O)OC[C@H]1O[C@@H](SCc2nnn(-c3ccc(S(N)(=O)=O)cc3)c2I)[C@H](OC(C)=O)[C@@H](OC(C)=O)[C@@H]1OC(C)=O
2. CC(=O)OC[C@H]1O[C@@H](S(=O)(=O)Cc2nnn(-c3ccc(S(N)(=O)=O)cc3)c2I)[C@H](OC(C)=O)[C@@H](OC(C)=O)[C@@H]1OC(C)=O

// result
1. Toxic
2. Toxic

Field: Activity. Fill in for each record below.
1. NS(=O)(=O)c1ccc(-n2cc(CS(=O)(=O)[C@@H]3O[C@H](CO)[C@@H](O)[C@H](O)[C@H]3O)nn2)cc1
2. NS(=O)(=O)c1ccc(-n2cc(CS[C@@H]3O[C@H](CO)[C@@H](O)[C@H](O)[C@H]3O)nn2)cc1

// result
["Non-toxic", "Non-toxic"]
